Taken from patent EP4494656A1.

test system: OATP1B3; assay: in vitro; conditions: human
Numbered stars: 1 amine (or outer) side, 2 acyl side, 3 side chain; on linkers, the order of the positions; unused ones are H or OH. Bridge positions count the residues as written; N and C are the ends. Square brackets hold non-standard residues; d marks the D form. Peptide text beside a SMILES is read from it. * marks the point of attachment. Adda = CO[C@@H](Cc1ccccc1)[C@@H](C)/C=C(C)/C=C/[C@H](N[*:1])[C@H](C)C(=O)[*:2]; dAsp(3S-Me) = C[C@H](C(=O)[*:3])[C@@H](N[*:1])C(=O)[*:2]; d(γGlu) = O=C(O)[C@@H](CCC(=O)[*:2])N[*:1]; NMeDha = C=C(NC)C(=O)O; Propargyl = C#CC*
measure-name: IC50 (nM)
Lab book: enter the figure in nM, no units written.

Q) Report IC50 for C#CCOc1ccc(C[C@@H]2NC(=O)[C@@H](C)NC(=O)C(=C)N(C)C(=O)CC[C@H](C(=O)O)NC(=O)[C@@H](C)[C@H](/C=C/C(C)=C/[C@H](C)[C@H](Cc3ccccc3)OC)NC(=O)[C@H](CCCNC(=N)N)NC(=O)[C@@H](C)[C@H](C(=O)O)NC2=O)cc1 [MC-PrgTyr-Arg, reference compound] (R[Adda][d(γGlu)][NMeDha][dA]Y(Propargyl)[dAsp(3S-Me)]-OH; lactam N-7) please.
A) 40.4
